- Tested on: Plasmodium falciparum
- Procedure Text: NOVARTIS: Inhibition of Plasmodium falciparum W2 (drug-resistant) proliferation in erythrocyte-based infection assay
- Type: functional, organism-based
- Conditions: Plasmodium falciparum, W2; read-out: EC50
Task for the reader: assign each of the following compounds its reported EC50.
Respond with the bare value in nM.

Form field: reported EC50 of CC(C)Cc1ccc(C=CC(=O)NC2CC2)cc1
1470

Form field: reported EC50 of Cc1ccc(-c2cc(C)[n+](C)c(-c3ccc(C)cc3)c2)cc1
763

Form field: reported EC50 of Cc1ccc(COc2ccc3c(C#N)c4ccccn4c3c2)cc1
1370

Form field: reported EC50 of CCOc1ccc(NC(=O)c2ccc(I)o2)cc1
5790

Form field: reported EC50 of CC1CCCCN1CCCNc1ncc(C(=O)NCCc2ccccc2)c(NCC2CCCCC2)n1 (stereo unspecified)
1200

Form field: reported EC50 of O=C(O)c1ccc([C@@H]2Nc3c(ccc4ccccc34)[C@@H]3C=CC[C@@H]32)cc1
1340

Form field: reported EC50 of CC(C)CN1C(=O)c2ccccc2C(C(=O)Nc2ccc(F)c(Cl)c2)C1c1cccs1 (stereo unspecified)
120

Form field: reported EC50 of COc1cccc(-c2ccc(O)c(CN3CCCCC3)c2)n1
54.7

Form field: reported EC50 of CCOC(=O)N1CCN(C(=O)c2ccc(N3CC4CC(C3)c3cccc(=O)n3C4)c(NS(=O)(=O)c3ccc4c(c3)OCCO4)c2)CC1 (stereo unspecified)
589

Form field: reported EC50 of FC(F)(F)c1ccccc1NC(=S)N1CCCN(c2nc3ccc(Cl)cc3s2)CC1
146

Form field: reported EC50 of CC(C)C(=O)N1CCOc2c(cc(-c3csc4ccccc34)cc2OCCc2ccccn2)C1
125

Form field: reported EC50 of CCN(CC)CCCC(C)N=c1cc(C=Cc2ccc([N+](=O)[O-])cc2)[nH]c2ccc(OC)cc12 (stereo unspecified)
14

Form field: reported EC50 of CCN(CC)CCCNC(=S)N(Cc1cc2ccc(OC)cc2[nH]c1=O)C1CCCCC1
1120

Form field: reported EC50 of Cc1ccn2c(NC(C)(C)CC(C)(C)C)c(-c3ccccc3OC(=O)N(C)C)nc2c1
28.5

Form field: reported EC50 of O=[N+]([O-])c1ccc(Nc2nc(NN=Cc3ccccc3I)nc(Nc3ccccc3)n2)cc1
2820

Form field: reported EC50 of CCOc1ccc2c(c1)sc(=NC(=O)Nc1ccc(OC)cc1)n2C
997

Form field: reported EC50 of COC(=O)CNC(c1ccccc1Cl)c1cc(Br)ccc1NS(=O)(=O)c1ccc(C)cc1 (stereo unspecified)
1760

Form field: reported EC50 of O=C(Nc1ccccc1[N+](=O)[O-])C1CC1(c1ccccc1)c1ccccc1 (stereo unspecified)
647

Form field: reported EC50 of CCCCNC(=O)c1ccc2c(c1)N=C(CC(C)c1ccccc1)N(C1CCCCC1)C2 (stereo unspecified)
8210

Form field: reported EC50 of COc1ccc2ccccc2c1C1CC(=O)N2CN(Cc3ccco3)CSC2=C1C#N (stereo unspecified)
2180

Form field: reported EC50 of CCOC(=O)c1nnn(-c2nonc2N)c1-c1ccc(Br)cc1
230

Form field: reported EC50 of C=CCn1c(=O)c(C(=O)NCC[N+](CC)(CC)CC=C)c(O)c2ccccc21
385

Form field: reported EC50 of Cc1cccc(OCC(=O)Nc2cccc(NC(=O)COc3cccc(C)c3)n2)c1
1160

Form field: reported EC50 of CCC1CN2CCC1CC2[C@@H](O)c1ccnc2ccc(OC)cc12 (stereo partly specified) [DIHYDROQUINIDINE]
25.7

Form field: reported EC50 of N#Cc1ccc(N2CCN(C(=O)c3ccc(F)cc3Cl)CC2)cc1
67.5

Form field: reported EC50 of CCN(CC)CCCN(Cc1cc2cc(OC)ccc2[nH]c1=O)C(=S)Nc1ccc(C)cc1
2020

Form field: reported EC50 of Cc1cc(C)n(N=Cc2ccc(Cl)cc2)c(=O)c1C#N
183

Form field: reported EC50 of CC(C)CNC(=O)c1cnc(NCCCN2CCCCC2C)nc1NCC1CCCCC1 (stereo unspecified)
1170

Form field: reported EC50 of COc1ccccc1CNC(=O)C1c2ccccc2C(=O)N2CCc3ccccc3C12 (stereo unspecified)
2250

Form field: reported EC50 of CCc1ccccc1N1C(=O)CN(Cc2ccccc2)C1=S
6000

* * *

- Procedure Text: NOVARTIS: Cytotoxicity against human hepatocellular carcinoma cell line (Huh7)
- Assay type: toxicity, cell-based, Huh-7
- Conditions: Huh7 cells (hepatocellular carcinoma cell line)
Observable: CC50

Form field: reported CC50 of CC[C@@H]1CN2CC[C@H]1C[C@H]2[C@H](O)c1ccnc2ccc(OC)cc12
> 6.25 µM

Form field: reported CC50 of Brc1ccc(C=Nc2ccc(-c3nc4cc(-c5ccc6[nH]c(-c7ccc(N=Cc8ccc(Br)cc8)cc7)nc6c5)ccc4[nH]3)cc2)cc1
> 10 µM

Form field: reported CC50 of CCCCCN(C(=O)c1ccc(C)cc1)C(C)c1nc2ccccc2c(=O)n1-c1ccccc1CC (stereo not given)
> 10 µM

Form field: reported CC50 of Cc1ccc(NC(=O)C2CC3c4ccccc4C2c2ccccc23)cc1 (stereo not given)
> 100 µM

Form field: reported CC50 of Cc1cc(S(=O)(=O)NC(Cc2ccc([N+](=O)[O-])cc2)C(=O)O)c(Cl)cc1Cl (stereo not given)
> 10 µM

Form field: reported CC50 of Cc1cc(NC(=O)C2c3ccccc3C(=O)N(CC(C)C)C2c2cccs2)no1 (stereo not given)
> 100 µM

Form field: reported CC50 of CCOc1ccc(C2N(C)c3ccccc3N2C)cc1
> 10 µM

Form field: reported CC50 of CN(C)CCN1CCN(c2cncc(-c3cccnc3)n2)CC1
> 10 µM

Form field: reported CC50 of Cc1[nH]c2ccccc2c(=O)c1Br
> 100 µM

Form field: reported CC50 of COC(=O)c1c(NC(=O)c2c(-c3ccccc3)noc2C)sc2c1CCC2
> 100 µM

* * *

- Procedure Text: NOVARTIS: Cytotoxicity against human hepatocellular carcinoma cell line (Huh7)
- Assay type: toxicity, cell-based, Huh-7
- Conditions: Huh7 cells (hepatocellular carcinoma cell line)
Observable: CC50

Form field: reported CC50 of CC(C)c1ccc(-c2cncc(N[C@@H](C)c3ccccc3)n2)cc1
> 10 µM

Form field: reported CC50 of O=C1NCCN1CCNS(=O)(=O)c1cc(C(F)(F)F)cc(C(F)(F)F)c1
> 10 µM

Form field: reported CC50 of CCC(C)OC(=O)C1=C(C)NC2=C(C(=O)CC(c3ccc(Cl)cc3)C2)C1c1ccccc1F (stereo not given)
> 100 µM

Form field: reported CC50 of CC(=O)OC1(C)CC(C)C(=O)C(C(O)CC2CC(=O)NC(=O)C2)C1 (stereo not given)
> 5.89 µM

Form field: reported CC50 of O=C(Nc1ccc(Cl)cc1Cl)c1ccc(-c2nc(-c3ccccc3Cl)cs2)cc1
> 7.93 µM

Form field: reported CC50 of S=C(NC1CCCCC1)NC1CC2CCC(C1)N2Cc1ccccc1 (stereo not given)
51.5 µM

Form field: reported CC50 of COCCNC(=O)c1ccc(OC2CCN(CC(c3ccccc3)c3ccccc3)CC2)c(OC)c1
> 76.7 µM

Form field: reported CC50 of O=C(NCCCN1CCCCC1)c1ccc2c(c1)sc1nc(-c3ccc(F)cc3)cn12
> 100 µM

Form field: reported CC50 of Cc1cc2c(cc1S(=O)(=O)N1CCCCC1C)OCC(=O)N2 (stereo not given)
> 100 µM

Form field: reported CC50 of C=C(C)CSc1nc(N)c2c3c(sc2n1)CN(CCC)CC3
> 66.3 µM

* * *

- Procedure Text: NOVARTIS: Cytotoxicity against human hepatocellular carcinoma cell line (Huh7)
- Format: toxicity, cell-based, Huh-7
- Conditions: Huh7 cells (hepatocellular carcinoma cell line)
Observable: CC50

Form field: reported CC50 of O=[N+]([O-])c1cc([N+](=O)[O-])c2cccnc2c1Nc1cccc2cccnc12
59.9 µM

Form field: reported CC50 of Cc1cc(Nc2ccc(Br)cc2)n2nc(C)nc2n1
> 100 µM

Form field: reported CC50 of CCOC(=O)c1cnc2cc(OCC(C)C)c(OCC(C)C)cc2c1O [BUQUINOLATE]
> 10 µM

Form field: reported CC50 of COC(=O)C1=C(C)NC2=C(C(=O)CC(c3ccc(OC)c(OC)c3)C2)C1c1ccccc1Br (stereo not given)
> 100 µM

Form field: reported CC50 of CCCN1CCc2c(sc3nc(SCC(=O)c4ccccc4)nc(N)c23)C1
> 100 µM

Form field: reported CC50 of Nc1cc(OC(=O)c2ccccc2)nn1S(=O)(=O)c1ccc(Cl)cc1
> 10 µM

Form field: reported CC50 of O=C(O)c1cccc(N2N=C(c3ccccc3)CC2=O)c1
> 100 µM

Form field: reported CC50 of CCOC(=O)C1=C(C)NC2=C(C(=O)CC(c3ccc(OC)c(OC)c3)C2)C1c1cccc(C)c1 (stereo not given)
> 100 µM

Form field: reported CC50 of CC(=NNC(=N)N)c1ccc(C)cc1
19.3 µM

Form field: reported CC50 of Cc1cc(C)n(CC(O)Cn2c3ccc(Br)cc3c3cc(Br)ccc32)n1 (stereo not given)
45.4 µM
